Target: HMG-CoA reductase (Rattus norvegicus, UniProt P51639)
Construct: the microsomes are the source of the HMG-CoA reductase enzyme; from tissue; host or cells: liver microsomes of male Sprague-Dawley rats (150-225 g)
Sequence (P51639 whole entry): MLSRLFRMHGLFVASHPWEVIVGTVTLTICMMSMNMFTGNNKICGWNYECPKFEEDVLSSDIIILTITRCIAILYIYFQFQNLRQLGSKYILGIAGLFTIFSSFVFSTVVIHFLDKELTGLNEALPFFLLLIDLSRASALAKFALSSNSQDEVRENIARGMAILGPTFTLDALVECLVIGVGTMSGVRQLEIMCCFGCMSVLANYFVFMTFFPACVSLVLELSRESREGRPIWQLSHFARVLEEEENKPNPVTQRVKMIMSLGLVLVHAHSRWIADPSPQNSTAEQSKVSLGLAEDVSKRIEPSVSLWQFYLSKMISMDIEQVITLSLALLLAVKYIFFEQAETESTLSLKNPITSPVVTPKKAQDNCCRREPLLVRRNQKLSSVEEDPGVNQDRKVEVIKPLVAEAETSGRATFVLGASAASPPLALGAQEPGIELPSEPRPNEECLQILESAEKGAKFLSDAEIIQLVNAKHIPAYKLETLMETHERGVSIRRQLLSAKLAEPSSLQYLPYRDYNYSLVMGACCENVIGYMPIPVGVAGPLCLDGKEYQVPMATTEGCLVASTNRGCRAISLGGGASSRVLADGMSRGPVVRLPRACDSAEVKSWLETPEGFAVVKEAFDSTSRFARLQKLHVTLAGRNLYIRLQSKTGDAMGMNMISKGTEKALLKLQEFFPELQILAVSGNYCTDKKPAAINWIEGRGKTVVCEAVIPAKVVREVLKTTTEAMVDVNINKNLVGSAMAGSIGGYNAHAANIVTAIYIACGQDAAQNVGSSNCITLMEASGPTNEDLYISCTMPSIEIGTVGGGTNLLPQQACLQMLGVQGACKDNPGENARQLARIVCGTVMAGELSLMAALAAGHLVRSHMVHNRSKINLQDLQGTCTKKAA
Assay: Test A. In Vitro Microsomal Assay of HMG-CoA Reductase Inhibition
Format: biochemical, rat (male Sprague-Dawley rat liver microsomes)
MEASUREMENT NAME: pIC50
pIC50 here is simply -log10 of the concentration when that concentration is written in mol/L.

Asked: Name the recorded pIC50 for CC[C@H](C)C(=O)O[C@H]1C[C@@H](C)C=C2C=C[C@H](C)[C@H](CC[C@@H]3C[C@@H](O)CC(=O)O3)[C@H]21 [Mevinolin, reference compound] .
Given back: 6.85

---

Target: HMG-CoA reductase (Rattus norvegicus)
Construct: the microsomes are the source of the HMG-CoA reductase enzyme; from tissue; host or cells: liver microsomes of male Sprague-Dawley rats (150-225 g)
Assay: Test A. In Vitro Microsomal Assay of HMG-CoA Reductase Inhibition
Format: biochemical, rat (male Sprague-Dawley rat liver microsomes)
Details: rat liver microsomal suspensions; test substance 0.0001-2,000 μmolar; calculated or observed; read-out: IC50 (50% inhibition of HMG-CoA reductase activity)
MEASUREMENT NAME: pIC50
pIC50 here is simply -log10 of the concentration when that concentration is written in mol/L.

Asked: Name the recorded pIC50 for CC(C)c1c(/C=C/[C@@H]2C[C@@H](O)CC(=O)O2)c(-c2ccc(F)cc2)nn1-c1ccccc1 (relative stereo) .
Given back: 6.59

Asked: Name the recorded pIC50 for CC(C)n1nc(-c2ccccc2)c(-c2ccc(F)cc2)c1/C=C\[C@@H]1C[C@@H](O)CC(=O)O1 .
Given back: 3.99

Asked: Name the recorded pIC50 for CC(C)n1nc(-c2ccccc2)c(-c2ccc(F)cc2)c1/C=C/[C@@H](O)C[C@@H](O)CC(=O)O (relative stereo) [Example 7] .
Given back: 7.40

Asked: Name the recorded pIC50 for CC(C)c1nn(-c2ccccc2)c(-c2ccc(F)cc2)c1/C=C/[C@@H](O)C[C@@H](O)CC(=O)O (relative stereo) .
Given back: 7.70

Asked: Name the recorded pIC50 for CC(C)n1nc(-c2ccccc2)c(-c2ccc(F)cc2)c1/C=C/[C@@H](O)C[C@@H](O)CC(=O)O [Example 3] .
Given back: 7.22

Asked: Name the recorded pIC50 for CC(C)n1nc(-c2ccccc2)c(-c2ccc(F)cc2)c1/C=C/[C@@H]1C[C@@H](O)CC(=O)O1 .
Given back: 7.10
